- assayMethodText: logP determination by HPLC on reversed-phase column (C 18), EEC directive 79/831 Annex V.A8
- Format: physicochemical
- assayContext: reversed-phase HPLC column (C 18); Table 1; label a): acidic range, 0.1% aqueous phosphoric acid/acetonitrile gradient, 43° C.
valueKind: chromatographic logP
Output: the number by itself.

// returns reported chromatographic logP for input Cn1c([S+]([O-])Cc2c(Cl)ccc(C(=O)C3C(=O)CCCC3=O)c2Cl)n[nH]c1=O (stereo not shown)
1.6

* * *

- assayMethodText: logP determination by HPLC on reversed-phase column (C 18), EEC directive 79/831 Annex V.A8
- Assay type: physicochemical
- assayContext: reversed-phase HPLC column (C 18); Example 1; mobile phase range not labelled; read-out: log P
valueKind: chromatographic logP

// returns reported chromatographic logP for input Cn1c(Sc2cc(C(F)(F)F)ccc2C(=O)C2C(=O)CCCC2=O)n[nH]c1=O
2

* * *

- assayMethodText: logP determination by HPLC on reversed-phase column (C 18), EEC directive 79/831 Annex V.A8
- Assay type: physicochemical
- assayContext: reversed-phase HPLC column (C 18); Table 2 (starting materials of formula II); label a): acidic range
valueKind: chromatographic logP
Output: the number by itself.

// returns reported chromatographic logP for input Cn1nc(SCc2cc(C(F)(F)F)ccc2C(=O)O)n(C)c1=O [II-9]
1.94
